Data origin, for the record: the supplement of paper PMC3545927

Subject Of Test: furin, P09958
Sequence (P09958 whole entry): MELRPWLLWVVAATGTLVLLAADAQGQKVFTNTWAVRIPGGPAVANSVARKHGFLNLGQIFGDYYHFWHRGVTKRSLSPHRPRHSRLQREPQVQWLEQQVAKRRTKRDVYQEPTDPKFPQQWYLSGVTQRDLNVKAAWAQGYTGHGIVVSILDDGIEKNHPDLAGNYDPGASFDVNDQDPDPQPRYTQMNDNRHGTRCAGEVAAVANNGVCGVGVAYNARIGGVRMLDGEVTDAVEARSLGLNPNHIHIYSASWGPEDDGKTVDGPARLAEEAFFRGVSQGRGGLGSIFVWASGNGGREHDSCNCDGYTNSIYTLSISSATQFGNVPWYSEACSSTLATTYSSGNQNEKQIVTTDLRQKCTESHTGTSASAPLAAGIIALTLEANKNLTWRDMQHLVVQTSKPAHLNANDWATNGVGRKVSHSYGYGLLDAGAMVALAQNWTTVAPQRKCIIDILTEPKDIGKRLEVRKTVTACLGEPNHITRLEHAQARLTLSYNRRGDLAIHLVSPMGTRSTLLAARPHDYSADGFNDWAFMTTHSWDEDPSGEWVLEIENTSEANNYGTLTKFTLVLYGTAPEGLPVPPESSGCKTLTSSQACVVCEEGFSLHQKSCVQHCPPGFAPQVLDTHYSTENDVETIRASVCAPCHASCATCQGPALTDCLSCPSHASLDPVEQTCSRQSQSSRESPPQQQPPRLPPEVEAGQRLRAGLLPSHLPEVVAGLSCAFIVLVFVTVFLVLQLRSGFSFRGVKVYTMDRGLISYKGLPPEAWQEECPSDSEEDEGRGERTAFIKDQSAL
Assay Remarks: furin cleavage Z-score vs untreated control; higher = more cleavage, active = 3.5 or more, inactive = 1 or less, 8 variable residues between constant flanks;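 note: purified furin at 1:10 enzyme:substrate in 50 mM HEPES pH 7.5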
Test Parameters: 15 min
Some of the results follow. The hit rate among all sequences tested is not known here.
Rule: 1 (yes) for furin cleavage Z-score not less than 1, 0 (no) for anything less.

1) CAPGRRRRRTAGNASASA [FS-1381]: 1 (yes)
2) CARMKRIFYRAGNASASA [FS-3162]: 1 (yes)
3) CAVCARAQAPAGNASASA [HC957]: 0 (no)
4) CAVVPCHRPSAGNASASA [HC2310]: 0 (no)
5) CARGRREARRAGNASASA [FS-2936]: 1 (yes)
6) CAQPRRHRRPAGNASASA [FS-1250]: 1 (yes)
7) CASWTGALVTAGNASASA [HC1373]: 1 (yes)
